Origin of the recorded values: ChEMBL document CHEMBL4673355

system: Pseudomonas aeruginosa; assay: Antibacterial activity against Pseudomonas aeruginosa ATCC 9027 assessed as reduction in bacterial growth incubated for 24 hrs by CLSI broth microdilution method; format: functional
observable: MIC (µg/mL)

Example entries begin here.
CCCCCCCCOc1c2cc(C[N+](C)(C)CCO)cc1Cc1cc(C[N+](C)(C)CCO)cc(c1OCCCCCCCC)Cc1cc(C[N+](C)(C)CCO)cc(c1OCCCCCCCC)Cc1cc(C[N+](C)(C)CCO)cc(c1OCCCCCCCC)C2.[Cl-].[Cl-].[Cl-].[Cl-] :: 500
CCCCCCCCOc1c2cc(C[n+]3ccn(C)c3)cc1Cc1cc(C[n+]3ccn(C)c3)cc(c1OCCCCCCCC)Cc1cc(C[n+]3ccn(C)c3)cc(c1OCCCCCCCC)Cc1cc(C[n+]3ccn(C)c3)cc(c1OCCCCCCCC)C2.[Cl-].[Cl-].[Cl-].[Cl-] :: 500
CCCOc1c2cc(C[N+](C)(C)CCN)cc1Cc1cc(C[N+](C)(C)CCN)cc(c1OCCC)Cc1cc(C[N+](C)(C)CCN)cc(c1OCCC)Cc1cc(C[N+](C)(C)CCN)cc(c1OCCC)C2.[Cl-].[Cl-].[Cl-].[Cl-] :: 50

[P] CCCOc1c2cc(C[n+]3ccn(C)c3)cc1Cc1cc(C[n+]3ccn(C)c3)cc(c1OCCC)Cc1cc(C[n+]3ccn(C)c3)cc(c1OCCC)Cc1cc(C[n+]3ccn(C)c3)cc(c1OCCC)C2.[Cl-].[Cl-].[Cl-].[Cl-]
[Q] CCCOc1c2cc(C[N+](C)(C)CCO)cc1Cc1cc(C[N+](C)(C)CCO)cc(c1OCCC)Cc1cc(C[N+](C)(C)CCO)cc(c1OCCC)Cc1cc(C[N+](C)(C)CCO)cc(c1OCCC)C2.[Cl-].[Cl-].[Cl-].[Cl-]
Ask | Could you tell me which of these two has the smaller MIC figure? First: P Second: Q Pick one; state its label.
Reply | P

----------
assay: Selectivity index, ratio of CC50 for human HSF cells to MIC for Staphylococcus epidermidis; assay type: toxicity; settings: HSF cells
observable: selectivity ratio
API note: the answer field is a bare number with no unit suffix.

Ask | Fill blank: measured selectivity ratio of the compound `CCCC[N+](C)(C)CCCNC(=O)COc1c2cc(C(C)(C)C)cc1Sc1cc(C(C)(C)C)cc(c1OCC(=O)NCCC[N+](C)(C)CCCC)Sc1cc(C(C)(C)C)cc(c1OCC(=O)NCCC[N+](C)(C)CCCC)Sc1cc(C(C)(C)C)cc(c1OCC(=O)NCCC[N+](C)(C)CCCC)S2.[Cl-].[Cl-].[Cl-].[Cl-]` is ____.
Reply | 11

Ask | Which selectivity ratio is listed for [H]/N=C(\N/C(=N/[H])NCCCCCCNC(=N)NC(=N)Nc1ccc(Cl)cc1)Nc1ccc(Cl)cc1 [CHLORHEXIDINE] ?
Reply | 5.48

Ask | Request the reported selectivity ratio associated with CCCCCCCCCCCCCC(=O)NCCC[N+](C)(C)Cc1ccccc1.[Cl-] [MIRAMISTIN]
Reply | 2.4

----------
Listing of recorded MIC by entry.
experiment: Antibacterial activity against […] resistant Moraxella sp.829 clinical isolate assessed as reduction in bacterial growth incubated for 24 hrs by CLSI broth microdilution method; format: functional; details: Moraxella catarrhalis
Numeric answer only, unit µg/mL assumed.

CCCCCCCCCCCCCC(=O)NCCC[N+](C)(C)Cc1ccccc1.[Cl-] [MIRAMISTIN] :: 32
CC(C)(C)c1cc2c(OCC(=O)NCCC[N+](C)(C)Cc3ccccc3)c(c1)Sc1cc(C(C)(C)C)cc(c1OCC(=O)NCCC[N+](C)(C)Cc1ccccc1)Sc1cc(C(C)(C)C)cc(c1OCC(=O)NCCC[N+](C)(C)Cc1ccccc1)Sc1cc(C(C)(C)C)cc(c1OCC(=O)NCCC[N+](C)(C)Cc1ccccc1)S2.[Cl-].[Cl-].[Cl-].[Cl-] :: 64

Ask | Name the recorded MIC for `CCCCCCCC[N+](C)(C)CCCNC(=O)COc1c2cc(C(C)(C)C)cc1Sc1cc(C(C)(C)C)cc(c1OCC(=O)NCCC[N+](C)(C)CCCCCCCC)Sc1cc(C(C)(C)C)cc(c1OCC(=O)NCCC[N+](C)(C)CCCCCCCC)Sc1cc(C(C)(C)C)cc(c1OCC(=O)NCCC[N+](C)(C)CCCCCCCC)S2.[Cl-].[Cl-].[Cl-].[Cl-]` .
Reply | 16

----------
Item-by-item account of MIC
test system: Escherichia coli; experiment: Antibacterial activity against Escherichia coli ATCC 25922 assessed as reduction in bacterial growth incubated for 24 hrs by CLSI broth microdilution method; type: functional; details: Escherichia coli, ATCC 25922, 24 h, read-out: MIC
Write it as a number; the unit µg/mL goes unstated.

CCCCCCCCOc1c2cc(C[n+]3ccn(C)c3)cc1Cc1cc(C[n+]3ccn(C)c3)cc(c1OCCCCCCCC)Cc1cc(C[n+]3ccn(C)c3)cc(c1OCCCCCCCC)Cc1cc(C[n+]3ccn(C)c3)cc(c1OCCCCCCCC)C2.[Cl-].[Cl-].[Cl-].[Cl-] :: 1000

Let us move to another entry and its MIC.
Ask | What MIC value was documented for this compound, CCCCCCCCCCCCCC(=O)NCCC[N+](C)(C)Cc1ccccc1.[Cl-] [MIRAMISTIN] ?
Reply | 64

----------
Recorded measurements of MBC, one per entry
test system: Staphylococcus aureus; experiment: Bactericidal activity against Staphylococcus aureus ATCC 29213; type: functional
Use µg/mL as the unit, but write only the number.

N=C(N)NCCc1cc2c(O)c(c1)Cc1cc(CCNC(=N)N)cc(c1O)Cc1cc(CCNC(=N)N)cc(c1O)Cc1cc(CCNC(=N)N)cc(c1O)C2.O=C(O)C(F)(F)F.O=C(O)C(F)(F)F.O=C(O)C(F)(F)F.O=C(O)C(F)(F)F :: 256
CCCOc1c2cc(C[N+](C)(C)CCO)cc1Cc1cc(C[N+](C)(C)CCO)cc(c1OCCC)Cc1cc(C[N+](C)(C)CCO)cc(c1OCCC)Cc1cc(C[N+](C)(C)CCO)cc(c1OCCC)C2.[Cl-].[Cl-].[Cl-].[Cl-] :: 16
CCCCCCCCOc1c2cc(C[N+](C)(C)CCO)cc1Cc1cc(C[N+](C)(C)CCO)cc(c1OCCCCCCCC)Cc1cc(C[N+](C)(C)CCO)cc(c1OCCCCCCCC)Cc1cc(C[N+](C)(C)CCO)cc(c1OCCCCCCCC)C2.[Cl-].[Cl-].[Cl-].[Cl-] :: 16

Next, consider the following compound.
Ask | Give Staphylococcus aureus MBC for `CCCOc1c2cc(C[N+](C)(C)C)cc1Cc1cc(C[N+](C)(C)C)cc(c1OCCC)Cc1cc(C[N+](C)(C)C)cc(c1OCCC)Cc1cc(C[N+](C)(C)C)cc(c1OCCC)C2.[Cl-].[Cl-].[Cl-].[Cl-]`
Reply | 16

----------
Measured selectivity ratio by item
experiment: Selectivity index, ratio of CC50 for human HSF cells to MIC for Escherichia coli ATCC 25922; assay type: toxicity
Simply state the number, no unit and no words.

[H]/N=C(\N/C(=N/[H])NCCCCCCNC(=N)NC(=N)Nc1ccc(Cl)cc1)Nc1ccc(Cl)cc1 :: 5.48

// next entry
Ask | Please report the recorded selectivity ratio for `CCCCCCCCCCCCCC(=O)NCCC[N+](C)(C)Cc1ccccc1.[Cl-]` .
Reply | 0.15

----------
test system: Klebsiella sp.; test: Antibacterial activity against […] resistant Klebsiella sp. clinical isolate 11 assessed as reduction in bacterial growth incubated for 24 hrs by CLSI broth microdilution method; format: functional
observable: MIC (µg/mL)
Numeric only. Scale: µg/mL

CCCCCCCC[N+](C)(C)CCCNC(=O)COc1c2cc(C(C)(C)C)cc1Sc1cc(C(C)(C)C)cc(c1OCC(=O)NCCC[N+](C)(C)CCCCCCCC)Sc1cc(C(C)(C)C)cc(c1OCC(=O)NCCC[N+](C)(C)CCCCCCCC)Sc1cc(C(C)(C)C)cc(c1OCC(=O)NCCC[N+](C)(C)CCCCCCCC)S2.[Cl-].[Cl-].[Cl-].[Cl-] :: 16

Ask | Which MIC reading was recorded for the compound `CCCCCCCCCCCCCC(=O)NCCC[N+](C)(C)Cc1ccccc1.[Cl-]` ?
Reply | 64

----------
Here the recorded MIC is given for each entry.
tested on: Pseudomonas aeruginosa; assay: Antibacterial activity against Pseudomonas aeruginosa ATCC 27853 assessed as reduction in bacterial growth incubated for 24 hrs by CLSI broth microdilution method; format: functional; conditions: Pseudomonas aeruginosa, ATCC 27853, 24 h, read-out: MIC

CCCC[N+](C)(C)CCCNC(=O)COc1c2cc(C(C)(C)C)cc1Sc1cc(C(C)(C)C)cc(c1OCC(=O)NCCC[N+](C)(C)CCCC)Sc1cc(C(C)(C)C)cc(c1OCC(=O)NCCC[N+](C)(C)CCCC)Sc1cc(C(C)(C)C)cc(c1OCC(=O)NCCC[N+](C)(C)CCCC)S2.[Cl-].[Cl-].[Cl-].[Cl-] :: > 64 µg/mL
CC(C)(C)c1cc2c(OCC(=O)NCCC[N+](C)(C)Cc3ccccc3)c(c1)Sc1cc(C(C)(C)C)cc(c1OCC(=O)NCCC[N+](C)(C)Cc1ccccc1)Sc1cc(C(C)(C)C)cc(c1OCC(=O)NCCC[N+](C)(C)Cc1ccccc1)Sc1cc(C(C)(C)C)cc(c1OCC(=O)NCCC[N+](C)(C)Cc1ccccc1)S2.[Cl-].[Cl-].[Cl-].[Cl-] :: > 64 µg/mL

Here's the next entry for you.
Ask | Look up MIC for this molecule: `CC(C)(C)c1cc2c(OCC(=O)NCCC[N+](C)(C)C)c(c1)Sc1cc(C(C)(C)C)cc(c1OCC(=O)NCCC[N+](C)(C)C)Sc1cc(C(C)(C)C)cc(c1OCC(=O)NCCC[N+](C)(C)C)Sc1cc(C(C)(C)C)cc(c1OCC(=O)NCCC[N+](C)(C)C)S2.[Cl-].[Cl-].[Cl-].[Cl-]`
Reply | > 64 µg/mL
